System: UO-31 renal
TEST: NCI tumour cell line growth inhibition, 48 h
MEASURE: GI50

Here's what some known entries look like.
• C[C@H](c1ccc(Cl)cc1N)N1C(=O)c2cc(I)ccc2N(CCCN2CCN(C)CC2)C(=O)[C@@H]1c1ccc(Cl)cc1 = 0.359 µM
• COc1cccc(-c2nn(-c3ccccc3)cc2-c2ccnc(NCCNS(=O)(=O)c3ccc(C(F)(F)F)cc3)c2)c1 = 2.61 µM
• CC(=O)[CH-]C(=O)c1ccccc1.CC(=O)[CH-]C(=O)c1ccccc1.O=C([O-])C[O-].O=C([O-])C[O-].[Ti+4] = 71.4 µM

Exercise: What measured GI50 goes with `COc1ccc(-c2cc(-c3ccc(Nc4nc(Nc5ccc(Cl)cc5)nc(Nc5ccc(Cl)cc5)n4)cc3)no2)cc1` ?
Solution: 5.36 µM

Exercise: Same again, this time with `O=c1oc2ccc(Cl)cc2c(=O)n1-c1ccc(Cl)cc1F`
Solution: 0.188 µM

Exercise: Okay, and `O=c1ncc(-c2ccc(C(F)(F)F)cc2)c(NC2CCCCCC2)[nH]1` ?
Solution: 14.2 µM

Exercise: `COc1ccc(-c2coc3ncnc(N)c23)cc1` , same question.
Solution: > 25 µM

Exercise: Continue with `C=C(C)C(=O)NC(N)=NC#N`
Solution: 134 µM

Exercise: Same thing, different compound: `COC(=O)c1cccc(NC(=O)Nc2ccc3oc(=O)c4ccccc4c3c2)c1`
Solution: > 100 µM

Sourced from PubChem BioAssay (NCI)
